As shown below, each of these compounds has a reported boiling point value.
Note: unit °C is implicit; provide only the numeric part.

CCCCC#CCCCCC    198

### Prompt Please look at this compound and report its boiling point: "CCCc1ccc(C)cc1"
### Response 183

### Prompt Please look at this compound and report its boiling point: OCCC(O)CO (stereo not given)
### Response 312

### Prompt Please look at this compound and report its boiling point: "CCc1ccc2c(c1)CCCC2"
### Response 244

### Prompt Please look at this compound and report its boiling point: "CCCOC(=O)CCC(=O)OCCC"
### Response 251

### Prompt Please look at this compound and report its boiling point: "CCOC(C)OCC"
### Response 102
